Source of measurements: paper PMC9482650

Items are presented alongside their recorded pKd.
# tested.target: DLG1_2, Q12959
# Sequence (Q12959 314-412): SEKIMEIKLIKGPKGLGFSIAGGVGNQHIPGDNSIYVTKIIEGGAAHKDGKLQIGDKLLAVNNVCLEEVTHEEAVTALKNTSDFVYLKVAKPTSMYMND
# assay.explanation: holdup assay
# Set-up: key: below the threshold = too weak to quantify, mostly under pKd 3.1 to 4
# recorded.conditions: plain residues with an end cap or a label only (N-terminal biotin on a linker: ttds)

# count of solved cases: 2
Ask: Give reported pKd value for PFRSRSPSEV [GPR6, P46095]
Result: 3.87

Ask: Let me know recorded pKd for FVETQHQTQV [FAT3, Q8TDW7] , thanks.
Result: 4.95

The record that follows has no pKd shown yet.
Ask: Provide only the value of recorded pKd for SSIDLWETAL [SLC15A5, A6NIM6]
Result: 4.4
